tested on: LOX IMVI melanoma; assay: NCI-60 one-dose screen, 48 h; conditions: 10 µM
Compounds without any hit were thinned out: in the full panel of roughly 83,000, 20% have a hit. Calls of active or inactive are those of the source. The calls were made as follows: active = growth percent below 10; inactive = the rest.
The reply should be one of these categories: active, inactive

Past entries and their recorded results:
compound	group
NC1=NC(=O)C(c2ccccc2)(c2ccccc2)S1	inactive
Cc1cccc(C)c1NC(=O)c1sc2nc3c(cc2c1N)C(=O)CCC3	inactive
COc1ccc(-c2nc(-c3nc4cc(Cl)c(F)cc4[nH]3)c3ccccn23)cc1	inactive

Query: Outcome logged for "Cc1ccc(NC(=O)CSc2nc3ccccc3c(=O)n2CCc2ccccc2)c(C(=O)O)c1" in this assay:
Response: inactive

Query: Hi team, can someone confirm the assay call for O=C(NN1C(=O)CSC1c1ccc(Cl)cc1)c1cccnc1 (stereo not drawn) ?
Response: inactive

###

system: SF-268 CNS; assay: NCI-60 one-dose screen, 48 h; conditions: 10 µM
The panel holds about 83,000 compounds, 20% with a hit somewhere; the sample as a whole holds those more often. The source made the active and inactive calls. How the source made its calls: active means growth percent below 10; inactive means the rest.
Give one outcome, nothing more. List: active, inactive

Query: I'd appreciate the recorded outcome for "COc1ccc(-c2nc3sc(C4CC4)nn3c2/C=C2/C(=O)Nc3ccc(OC)cc32)cc1" from this test.
Response: inactive

Query: # lookup: test call for "CC(=O)N1C/C(=C/c2ccc(Cl)cc2)C(=O)/C(=C/c2ccc(Cl)cc2)C1"
Response: active

Query: # lookup: test call for O=C1OCC2=C1C(c1cccc(Cl)c1)c1cc3c(cc1N2CCO)OCO3 (stereo not given)
Response: inactive

Query: Kindly provide the recorded test outcome for the following compound: O=C(O)CC(Cl)C(Cl)CC(=O)O (stereo not given)
Response: inactive

Query: Answer briefly: the call reported for "O=S(=O)(NCCCNc1nccc(-c2c(-c3ccc(F)cc3)nc3sccn23)n1)c1ccc(F)cc1" in this assay.
Response: inactive

###

tested on: RPMI-8226 leukemia; test: NCI-60 one-dose screen, 48 h (100 = growth as untreated, 0 = no growth, -100 = all killed); settings: 10 µM
Compounds without any hit were thinned out: in the full panel of roughly 83,000, 20% have a hit.
I'd appreciate it if you marked entries Criterion met when growth is lower than 90% and Criterion not met when it is not.

These solved cases illustrate the format of a correct answer.
molecule	group
Oc1[nH]c2ccc(Cl)cc2c1/C=c1/ccc2c(c1)N=C(c1cc(F)cc(F)c1)N=2	Criterion met
CCN1CCC(CCOC)(CN2c3ccccc3Sc3ccc(Cl)cc32)C1 (configuration not stated)	Criterion met

Query: Would you kindly verify if growth of CCCN(CCC)CCC(O)c1cc2c(c3ccccc13)CCCC2 (configuration not stated) is strictly less than 90%?
Response: Criterion met

Query: State whether 90% exceeds growth recorded for "CC1(C)CCC(=NNC(N)=S)CC1" .
Response: Criterion not met

Query: Is the reported growth for "Clc1ccccc1N=Cc1ccc2c(c1)OCO2" strictly below 90%?
Response: Criterion not met

Query: Below 90% on growth? Entry "COc1cc(Nc2ncnc(Nc3ccc4c(n3)NC(=O)C(C)(C)O4)n2)cc(OC)c1OC"
Response: Criterion met

Query: is_below(growth, 90%) for CCN(CC)CCC(CNc1c(C)cnc2cc(Cl)ccc12)c1ccc(Cl)cc1 (configuration not stated) ?
Response: Criterion met

Query: Answer whether the molecule "COc1cc(-c2cc(/C=C3\C(=O)Nc4ccccc43)[nH]n2)cc(OC)c1OC" has growth strictly less than 90%
Response: Criterion met

Query: Does "Cc1ncc(-c2ccoc2)c(NC2CCCCCC2)n1" have growth strictly under 90%?
Response: Criterion not met

Query: Confirm or reject: growth of "COC(=O)C(=C\c1ccc2c(c1)OCO2)/C(=C/c1ccc2c(c1)OCO2)C(=O)OC" lies strictly below 90%
Response: Criterion not met

Query: Answer whether the molecule COc1ccc2nc3cc(Cl)ccc3c(NCCNCC(C)O)c2c1 (configuration not stated) has growth strictly less than 90%
Response: Criterion met

Query: Please determine if "O=C1N=NC2=C1c1c3ccccc3c(O)n1CC2" is below 90% in terms of growth.
Response: Criterion not met

Query: Take the molecule "CN(C)CCCn1c(=O)c2ccccc2c2cnc3[nH]ccc3c21" and say whether its growth is less than 90%.
Response: Criterion met

Query: Confirm or reject: growth of CCOC1(OCC)OC(c2ccccc2)=C(C#N)C(/C=C\c2ccccc2)C1(OCC)OCC (configuration not stated) lies strictly below 90%
Response: Criterion met

###

test system: CCRF-CEM leukemia; assay: NCI-60 one-dose screen, 48 h; details: 10 µM
About 83,000 compounds went through this panel and 20% of them were active in at least one assay; those are over-represented in the sample as a whole. Active and inactive are the calls of the source. The calls were made as follows: active = growth percent below 10; inactive = the rest.
In this exercise, the only acceptable responses are 1 (yes) for active, 0 (no) for inactive

Completed entries (count: 3):
compound	target desc	group
O=C(N/N=C/c1cc2ccccc2c2ccccc12)c1cc(O)c(O)c(O)c1	CCRF-CEM leukemia	0 (no)
CCOC(=O)C1CCc2c(ccc3ccccc23)N1CCC#N (stereo unspecified)	CCRF-CEM leukemia	0 (no)
CC1(C)Cc2c(sc3ncn4nc(-c5ccc(O)cc5)nc4c23)CO1	CCRF-CEM leukemia	0 (no)

Query: Recorded test call requested for "CCN(CC)CCN1CC(=O)Nc2cc(Cl)ccc21"
Response: 0 (no)

Query: Hey, what did the test say about "COc1ccc(-c2cc(-c3cccc(NS(C)(=O)=O)c3)nc(N)c2C#N)cc1" ?
Response: 0 (no)

###

Form field: growth (one value per entry).
test system: SF-268 CNS; assay: NCI-60 one-dose screen, 48 h (100 = growth as untreated, 0 = no growth, -100 = all killed); settings: 10 µM
Compounds without any hit were thinned out: in the full panel of roughly 83,000, 20% have a hit.
Kindly provide the numeric value in % only, without the unit symbol.

Here are 5 molecules together with their reported answers.
molecule	growth / %
COc1ccc(S(=O)(=O)NCCCNc2nccc(-c3c(-c4ccc(F)cc4)nc4sccn34)n2)cc1	50.6
COC(=O)[C@@H]1[C@H](O)[C@H](C)[C@H](O)[C@@](C)(O)/C=C\C=C(C)C(=O)Nc2c(C)c(OC(C)=O)c3c(c2O)C(=O)C(C)=C2OCOC(=C23)C(C)=C[C@@](C)(O)[C@H](O)[C@@H](C)[C@H]1OC(C)=O	113
CC(=O)O[C@]1(C)CC[C@H]2[C@H](CNCCc3ccc(Cl)cc3)C(=O)O[C@@H]2C2=C(C)C(=O)C[C@H]21	91
COc1ccccc1CNCCN1C(=O)c2ccc3c4c(ccc(c24)C1=O)C(=O)N(CCNCc1ccccc1OC)C3=O	-79.5
NC(=O)SCC(=O)Nc1ccc(S(N)(=O)=O)cc1	106

Query: // growth lookup, key: Nc1ccc2c(c1)C1(CCC2)NC(=O)NC1=O (stereo unspecified)
Response: 100

Query: Endpoint output: growth of "COc1ccc(/C(=C2/O[C@@H]([C@H]3COC(C)(C)O3)[C@H]3OC(C)(C)O[C@@H]23)c2cc(OC)c(OC)c(OC)c2)cc1O" . Value?
Response: 37.8

Query: Would you kindly share the measured growth for "CC(=O)OCc1cc(-c2nc3ccccc3[nH]c2=O)nn1-c1ccc(Cl)cc1" ?
Response: 109

Query: Give its growth value. Item: "c1ccc(CO[C@H]2CO[C@H]3[C@@H]2OC[C@H]3OCc2ccccc2)cc1"
Response: 102

Query: GET /values?readout=growth&item= COc1ccc2nc3ccccc3c(NCCNCC(C)O)c2c1 (stereo unspecified)
Response: 8.57

Query: Which growth is reported for this molecule? "O=C(Nc1cccc(-n2cc(-c3ccncc3)c(-c3cc(O)cc(Cl)c3)n2)c1)c1cc(C(F)(F)F)cc(C(F)(F)F)c1"
Response: 69.4

###

system: SK-MEL-28 melanoma; test: NCI-60 one-dose screen, 48 h; details: 10 µM
Compounds without any hit were thinned out: in the full panel of roughly 83,000, 20% have a hit. Active and inactive are the calls of the source. Rule for the calls: active = growth percent below 10; inactive = the rest.
Choose the fitting class; nothing outside true (1) for active, false (0) for inactive is accepted.

compound	group
Cc1cc(N(CCCNc2ccnc3cc(Cl)ccc23)Cc2ccc3c(c2)OCO3)nc(N2CCOCC2)n1	true (1)

Query: Test call, this compound: "C/C(N)=C(\C#N)C(=O)c1ccccc1"
Response: false (0)

Query: How was "COc1ccc(-c2nc3ccccn3c2-c2nnc(-c3cc(OC)c(OC)c(OC)c3)o2)cc1" classified in this test?
Response: false (0)

Query: Dear all, I need the recorded test outcome for "O=C(Nc1cccc(-n2cc(-c3ccncc3)c(-c3ccc(O)c(Cl)c3)n2)c1)Nc1cccc(C(F)(F)F)c1" , thank you.
Response: true (1)

Query: # outcome recorded in this test, key = "O=C1/C(=C\c2ccc(Cl)cc2)CN(C(=O)c2ccccc2)C/C1=C\c1ccc(Cl)cc1"
Response: false (0)

Query: Each compound tested received a call. Report the one for "O=C1/C(=C\c2ccc(Br)cc2)CN(C(=O)c2ccccc2F)C/C1=C\c1ccc(Br)cc1" .
Response: false (0)

Query: # lookup: test call for "CSc1nn(-c2ccccc2)c2ncnc(Oc3ccccc3)c12"
Response: false (0)

Query: Status in this test for "COc1ccc(/C=C/C(C)=N/OCC(=O)O)cc1" ?
Response: false (0)

Query: Outcome? CCCCC(CCCCCC(CCCC)NCc1ccc2c(c1)OCO2)NCc1ccc2c(c1)OCO2 (centres undefined)
Response: true (1)

Query: Kindly provide the recorded test outcome for the following compound: "CC(C)(C)c1ccc(N2CSC(=S)N(c3ccc(C(C)(C)C)cc3)C2)cc1"
Response: false (0)

Query: Record request — test call for Nc1ccc2c(c1)C1(CCC2)NC(=O)NC1=O (centres undefined)
Response: false (0)

Query: Could you check what this test reported for "COc1cccc(C(=O)Nc2ccc(CN3CCc4nc5cc(OC)c(OC)cc5cc43)cc2)c1" ?
Response: false (0)

Query: Recorded call for "COc1ccc(/C=C2/CN(C(=O)c3ccc(C)cc3)C/C(=C\c3ccc(OC)cc3)C2=O)cc1" ?
Response: false (0)

Query: Entry O=C(CC(NC(=O)OCc1ccccc1)C(=O)OCc1ccccc1)OCc1ccccc1 (centres undefined) : call = ?
Response: false (0)

Query: State the result this test recorded for "COc1cc(-c2cc(/C=C/C(=O)c3ccc(Cl)c(Cl)c3)[nH]n2)cc(OC)c1OC" .
Response: false (0)

Query: Which outcome was assigned to "COc1ccc(Cl)cc1C(=O)Nc1nc2ccc(Cl)cc2s1" in this test?
Response: false (0)

Query: recorded result category for "O=C(c1cccs1)c1ccccc1Cc1ccccc1" in this test
Response: false (0)

Query: Hey, what did the test say about "COc1cc(/C=C/C(=O)c2ccc(Cl)cc2)ccc1OS(=O)(=O)c1ccc(C)cc1" ?
Response: false (0)

Query: So what was the verdict on CC(C)=CCc1cc(O)cc2c1OC(C=C(C)C)C1=C2C(=O)C2=C(NCCS2(=O)=O)C1=O (centres undefined) in this test?
Response: true (1)

Query: GET /call?item= "COc1ccc(S(=O)(=O)Nc2c(/C=C\c3cc(OC)c(OC)c(OC)c3)ccc(OC)c2O)cc1" returns the recorded outcome of this test.
Response: false (0)

Query: Recorded test call requested for "CC(=O)OCc1cc(-c2nc3ccccc3[nH]c2=O)nn1-c1ccc(Cl)cc1"
Response: false (0)

Query: Entry N#CSCC1CC(O)(c2ccccc2)CC(c2ccc(Cl)cc2)O1 (centres undefined) : call = ?
Response: false (0)

Query: Just curious, what result did "CC(C)N(CCNc1nc(C(Cl)(Cl)Cl)nc2cc(Cl)ccc12)C(C)C" get here?
Response: true (1)

Query: What did the test return for CCCN(CCC)CCC(O)c1cc2c(c3ccccc13)CCCC2 (centres undefined) ?
Response: false (0)
